experiment: Pharmacokinetics of different salt forms of ocinaplon after a single oral dose; format: in vivo; conditions: dog, plasma; male beagle dogs; single oral dose 50 mg/kg; 0.5% MC; mean (CV %)
readout: half-life (h)

{"molecule": "O=C(c1ccccn1)c1cnn2c(-c3ccncc3)ccnc12 [Ocinaplon Free base, reference compound]", "val": 1.61}

----------
Tmax values, listed per item
Assay: Pharmacokinetics of different salt forms of ocinaplon after a single oral dose
Assay type: in vivo
Details: dog, plasma, 30 mg/kg; male beagle dogs; single oral dose 30 mg Base/kg; 0.5% methylcellulose suspension; mean (CV %), N = 5
Experimental: The test compounds were prepared in 0.5% methylcellulose. The target concentrations of the free base and HBr salt were 1.0 and 1.34 mg/mL (equivalent to 1 mg of the free base), respectively. The liquid suspensions were administered via oral gavage. […] Blood (approximately 2 mL) was collected from a jugular vein via syringe and needle and transferred into tubes containing K2EDTA anticoagulant predose and at 0.5, 1, 2, 3, 4, 6, 8, 12, and 24 hours postdose. […] Samples were analyzed using an LC/MS/MS method. […]
Structures can show the parent of a compound that is named as a salt.

{"compound": "Br.Br.O=C(c1ccccn1)c1cnn2c(-c3ccncc3)ccnc12 [Ocinaplon di HBr]", "measurementUnits": "min", "Tmax": 54}
{"compound": "Cl.Cl.O=C(c1ccccn1)c1cnn2c(-c3ccncc3)ccnc12 [Ocinaplon di HCl salt]", "measurementUnits": "min", "Tmax": 66}
{"compound": "O=C(c1ccccn1)c1cnn2c(-c3ccncc3)ccnc12 [Ocinaplon disulfate salt]", "measurementUnits": "min", "Tmax": 48}

----------
assay: Plasma pharmacokinetic comparison of zaleplon free base and HCl salt after single oral doses; format: in vivo; settings: male, beagle, dog, plasma, po, 2.5 mg HCl Salt/kg, male beagle dogs; single oral dose 2.5 mg HCl Salt/kg; dog H1B108
readout: Tmax (h)

{"compound": "CCN(C(C)=O)c1cccc(-c2ccnc3c(C#N)cnn23)c1.Cl [zaleplon HCl, Zaleplon Hydrochloride]", "readout": "Tmax", "val": 1}

----------
assay: Plasma pharmacokinetic comparison of zaleplon free base and HCl salt after single oral doses; assay type: in vivo; details: male, beagle, dog, plasma, po, 5 mg/kg, male beagle dogs; single oral dose 5.0 mg Free Base/kg; dog H1B108
readout: AUC(0-t)

{"compound": "CCN(C(C)=O)c1cccc(-c2ccnc3c(C#N)cnn23)c1 [zaleplon free base, reference compound]", "val": "3760 ng·h/mL"}

----------
assay: Plasma pharmacokinetic comparison of zaleplon free base and HCl salt after single oral doses; assay type: in vivo; details: male, beagle, dog, plasma, po, 2.5 mg HCl Salt/kg, male beagle dogs; single oral dose 2.5 mg HCl Salt/kg; dog CLT-2

{"compound": "CCN(C(C)=O)c1cccc(-c2ccnc3c(C#N)cnn23)c1.Cl [zaleplon HCl, Zaleplon Hydrochloride]", "AUC(0-inf)": "1820 ng·h/mL"}

----------
assay: Plasma pharmacokinetic comparison of zaleplon free base and HCl salt after single oral doses; assay type: in vivo; conditions: male, beagle, dog, plasma, po, 5 mg/kg, male beagle dogs; single oral dose 5.0 mg Free Base/kg; dog H0M004

{"compound": "CCN(C(C)=O)c1cccc(-c2ccnc3c(C#N)cnn23)c1 [zaleplon free base, reference compound]", "AUC(0-inf) [ng·h/mL]": 7000}

----------
assay: Plasma pharmacokinetic comparison of zaleplon free base and HCl salt after single oral doses; assay type: in vivo; details: male, beagle, dog, plasma, po, 2.5 mg HCl Salt/kg, male beagle dogs; single oral dose 2.5 mg HCl Salt/kg; dog H0M004

{"compound": "CCN(C(C)=O)c1cccc(-c2ccnc3c(C#N)cnn23)c1.Cl [zaleplon HCl, Zaleplon Hydrochloride]", "AUC(0-inf), ng·h/mL": 2010}

----------
assay: Plasma pharmacokinetic comparison of zaleplon free base and HCl salt after single oral doses; type: in vivo; conditions: male, beagle, dog, plasma, po, 5 mg/kg, male beagle dogs; single oral dose 5.0 mg Free Base/kg; dog CLT-2
readout: AUC(0-t)

{"compound": "CCN(C(C)=O)c1cccc(-c2ccnc3c(C#N)cnn23)c1 [zaleplon free base, reference compound]", "readout": "AUC(0-t)", "val": "6840 ng·h/mL"}

----------
assay: Plasma pharmacokinetic comparison of zaleplon free base and HCl salt after single oral doses; type: in vivo; conditions: male, beagle, dog, plasma, po, 5 mg/kg, male beagle dogs; single oral dose 5.0 mg Free Base/kg; dog CLT-2

{"molecule": "CCN(C(C)=O)c1cccc(-c2ccnc3c(C#N)cnn23)c1 [zaleplon free base, reference compound]", "Tmax": "1 h"}

----------
assay: Plasma pharmacokinetic comparison of zaleplon free base and HCl salt after single oral doses; assay type: in vivo; conditions: male, beagle, dog, plasma, po, 5 mg/kg, male beagle dogs; single oral dose 5.0 mg Free Base/kg; dog TDR2
readout: Tmax (min)

{"compound": "CCN(C(C)=O)c1cccc(-c2ccnc3c(C#N)cnn23)c1 [zaleplon free base, reference compound]", "val": 30}

----------
test: Pharmacokinetics of different salt forms of ocinaplon after a single oral dose; assay type: in vivo; settings: dog, plasma; male beagle dogs; single oral dose 50 mg/kg; 0.5% MC; mean (CV %)

{"molecule": "O=C(c1ccccn1)c1cnn2c(-c3ccncc3)ccnc12 [Ocinaplon Free base, reference compound]", "Tmax / h": 1.8}

----------
experiment: Pharmacokinetics of indiplon after oral administration of free base or HBr co-crystal suspension; format: in vivo, male beagle dogs; details: male, beagle, dog, plasma, po, 5 mg/kg, male dogs; single oral dose 5 mg free base/kg; 0.5% methylcellulose suspension; dog CUVBAT; read-out: Tmax

{"compound": "CC(=O)N(C)c1cccc(-c2ccnc3c(C(=O)c4cccs4)cnn23)c1 [Indiplon free base, reference compound]", "measurementUnits": "min", "Tmax": 30}

----------
assay: Plasma pharmacokinetic comparison of zaleplon free base and HCl salt after single oral doses; format: in vivo; details: male, beagle, dog, plasma, po, 2.5 mg HCl Salt/kg, male beagle dogs; single oral dose 2.5 mg HCl Salt/kg; Mean of 5 dogs
readout: Cmax (ng/mL)

{"compound": "CCN(C(C)=O)c1cccc(-c2ccnc3c(C#N)cnn23)c1.Cl [zaleplon HCl, Zaleplon Hydrochloride]", "readout": "Cmax", "measurementUnits": "ng/mL", "val": 790}

----------
assay: Plasma pharmacokinetic comparison of zaleplon free base and HCl salt after single oral doses; type: in vivo; settings: male, beagle, dog, plasma, po, 5 mg/kg, male beagle dogs; single oral dose 5.0 mg Free Base/kg; dog TKR-2

{"compound": "CCN(C(C)=O)c1cccc(-c2ccnc3c(C#N)cnn23)c1 [zaleplon free base, reference compound]", "AUC(0-t), ng·h/mL": 13400}

----------
test: Plasma pharmacokinetic comparison of zaleplon free base and HCl salt after single oral doses; type: in vivo; details: male, beagle, dog, plasma, po, 5 mg/kg, male beagle dogs; single oral dose 5.0 mg Free Base/kg; Mean of 5 dogs
readout: Cmax (ng/mL)

{"compound": "CCN(C(C)=O)c1cccc(-c2ccnc3c(C#N)cnn23)c1 [zaleplon free base, reference compound]", "readout": "Cmax", "measurementUnits": "ng/mL", "val": 1590}

----------
assay: Plasma pharmacokinetic comparison of zaleplon free base and HCl salt after single oral doses; format: in vivo; details: male, beagle, dog, plasma, po, 5 mg/kg, male beagle dogs; single oral dose 5.0 mg Free Base/kg; dog H0M004

{"compound": "CCN(C(C)=O)c1cccc(-c2ccnc3c(C#N)cnn23)c1 [zaleplon free base, reference compound]", "measurementUnits": "h", "Tmax": 1}

----------
test: Plasma pharmacokinetic comparison of zaleplon free base and HCl salt after single oral doses; type: in vivo; details: male, beagle, dog, plasma, po, 2.5 mg HCl Salt/kg, male beagle dogs; single oral dose 2.5 mg HCl Salt/kg; dog TDR2

{"compound": "CCN(C(C)=O)c1cccc(-c2ccnc3c(C#N)cnn23)c1.Cl [zaleplon HCl, Zaleplon Hydrochloride]", "measurementUnits": "min", "Tmax": 30}

----------
test: Pharmacokinetics of different salt forms of ocinaplon after a single oral dose; format: in vivo; details: male, beagle, dog, plasma, po, 30 mg/kg, male beagle dogs, apparently scaled from 50 mg/kg; 0.5% MC

{"compound": "O=C(c1ccccn1)c1cnn2c(-c3ccncc3)ccnc12 [Ocinaplon Free base, reference compound]", "AUC(0-t), ng·h/mL": 37600}

----------
experiment: Plasma pharmacokinetic comparison of zaleplon free base and HCl salt after single oral doses; format: in vivo; details: male, beagle, dog, plasma, po, 2.5 mg HCl Salt/kg, male beagle dogs; single oral dose 2.5 mg HCl Salt/kg; Mean of 5 dogs
readout: Tmax (min)

{"molecule": "CCN(C(C)=O)c1cccc(-c2ccnc3c(C#N)cnn23)c1.Cl [zaleplon HCl, Zaleplon Hydrochloride]", "readout": "Tmax", "measurementUnits": "min", "val": 33}

----------
test: Plasma pharmacokinetic comparison of zaleplon free base and HCl salt after single oral doses; type: in vivo; conditions: male, beagle, dog, plasma, po, 5 mg Free Base/kg, male beagle dogs; single oral dose 5.0 mg Free Base/kg; Mean of 5 dogs
readout: Tmax

{"compound": "CCN(C(C)=O)c1cccc(-c2ccnc3c(C#N)cnn23)c1 [zaleplon free base, reference compound]", "val": "1.1 h"}

----------
experiment: Pharmacokinetics of indiplon after oral administration of free base or HBr co-crystal suspension; type: in vivo, male beagle dogs; details: male, beagle, dog, plasma, po, 5 mg/kg, male dogs; single oral dose 5 mg free base/kg; 0.5% methylcellulose suspension; dog CUPBEG; read-out: Tmax

{"chemSmiles": "CC(=O)N(C)c1cccc(-c2ccnc3c(C(=O)c4cccs4)cnn23)c1", "measurementUnits": "min", "Tmax": 30}
